Let's look at some compounds and their measured viability at 48 h, 10 µM.
method: in vitro
Set-up: species or system CCD841, HEK293
studyConditions: human, hb2 cells, read-out: HB-2 Cells Viability (%)
endpoint: viability at 48 h, 10 µM (%)

[[record]]
compound = "CNC(=O)C1CN(C(=O)CCl)c2ccccc2O1 (stereo not drawn) [PCM-0102221]"
endpoint = "viability at 48 h, 10 µM"
measuredresult = 82.1

[[record]]
compound = "CC(NC(=O)CCl)c1ccc(Cl)cc1 (stereo not drawn) [PCM-0102334]"
endpoint = "viability at 48 h, 10 µM"
measuredresult = 78.4

[[record]]
compound = "C=CC(=O)Nc1ccc(N2CCCC2=O)cc1 [PCM-0102145]"
endpoint = "viability at 48 h, 10 µM"
measuredresult = 101

[[record]]
compound = "CC(C)c1nnc(NC(=O)CCl)s1 [PCM-0102928]"
endpoint = "viability at 48 h, 10 µM"
measuredresult = 85.3

[[record]]
compound = "C=CC(=O)NC1(c2nc(C)cs2)CCOCC1 [PCM-0102601]"
endpoint = "viability at 48 h, 10 µM"
measuredresult = 103

[[record]]
compound = "Cc1c(C#N)c(NC(=O)CCl)n(-c2cccc(F)c2)c1C [PCM-0102146]"
endpoint = "viability at 48 h, 10 µM"
measuredresult = 25


---

method: in vitro
Design: species or system CCD841, HEK293
studyConditions: human, hb2 cells, read-out: HB-2 Cells Viability (%)
Let's look at some compounds and their measured viability at 48 h, 10 µM.
endpoint: viability at 48 h, 10 µM (%)

[[record]]
compoundsmiles = "NS(=O)(=O)c1ccc(Cl)c(NC(=O)CCl)c1"
measuredresult = 54.7

[[record]]
compoundsmiles = "Cl.O=C(CCl)NC1CCN(C2CC2)CC1"
measuredresult = 98.2

[[record]]
compoundsmiles = "Cc1ccccc1CN(C)C(=O)CCl"
measuredresult = 7.9

[[record]]
compoundsmiles = "Cc1nc(NC(=O)CCl)c(Cl)cc1Cl"
measuredresult = 110

[[record]]
compoundsmiles = "C=CC(=O)N1CCN(c2cc(C)nc(C)n2)CC1"
measuredresult = 101


---

studyTarget: OTUB2 (OTUB2A) (Homo sapiens)
Construct: full length residues 1-234, E. coli BL21(DE3)-R3, His tag removed by TEV, construct 27312 Da
Design: Intact protein LC/MS covalent labelling, fragments in pools of five, 200 uM each, 4 °C
studyConditions: 24 h, 4 °C, pool of five; 200 µM; covalent
Let's look at some molecules and their measured OTUB2.
endpoint: OTUB2

[[record]]
molecule = "C=CC(=O)NC(C#N)C(C)C (stereo not shown) [PCM-0102529]"
measuredresult = 0

[[record]]
molecule = "O=C(CCl)N1CCN(Cc2ccc3c(c2)OCCO3)CC1 [PCM-0102386]"
measuredresult = 0

[[record]]
molecule = "O=C(CCl)NC(=O)OCc1ccccc1 [PCM-0102153]"
measuredresult = 0.79

[[record]]
molecule = "O=C(CCl)NC(=O)NC1CCCC1 [PCM-0103001]"
measuredresult = 0

[[record]]
molecule = "C=CC(=O)Nc1nc(-c2ccccc2C)cs1 [PCM-0102845]"
measuredresult = 0

[[record]]
molecule = "CC(NC(=O)CCl)c1ccc(F)cc1F (stereo not shown) [PCM-0103035]"
measuredresult = 0.34

[[record]]
molecule = "C=CC(=O)N1CCN(C(=O)Cc2c(C)noc2C)CC1 [PCM-0102531]"
measuredresult = 0

[[record]]
molecule = "COC(=O)c1ccc(C)c(NC(=O)CCl)c1 [PCM-0103027]"
measuredresult = 0

[[record]]
molecule = "O=C(CCl)NNC(=O)C1CC1 [PCM-0102776]"
measuredresult = 0.23

[[record]]
molecule = "O=C(CCl)Nc1ccc2c(c1)OCCCO2 [PCM-0102409]"
measuredresult = 0.23

[[record]]
molecule = "C=CC(=O)N1CCN(C(C)C)c2ccccc2C1 [PCM-0102888]"
measuredresult = 0

[[record]]
molecule = "C=CC(=O)N1CCCC(c2ncc(C(F)(F)F)[nH]2)C1 (stereo not shown) [PCM-0102527]"
measuredresult = 0

[[record]]
molecule = "C=CC(=O)N1CCCC(NS(C)(=O)=O)C1 (stereo not shown) [PCM-0102522]"
measuredresult = 0

[[record]]
molecule = "O=C(CCl)NCc1cc(Br)cs1 [PCM-0103050]"
measuredresult = 0.84

[[record]]
molecule = "CC1CN(c2ccc(NC(=O)CCl)cc2)CC(C)O1 (stereo not shown) [PCM-0102750]"
measuredresult = 0.24

[[record]]
molecule = "N#CC1(NC(=O)CCl)CCCCCC1 [PCM-0102465]"
measuredresult = 0

[[record]]
molecule = "C=CC(=O)N1CC(C)(C)C1c1cccs1 (stereo not shown) [PCM-0102611]"
measuredresult = 0

[[record]]
molecule = "C=CC(=O)N1CCCN(C(=O)Oc2ccccc2)CC1 [PCM-0102451]"
measuredresult = 0

[[record]]
molecule = "C=CC(=O)N1CCOC2(CCc3ccccc32)C1 (stereo not shown) [PCM-0102439]"
measuredresult = 0

[[record]]
molecule = "O=C(CCl)N1Cc2ccccc2C(c2ccccc2)C1 (stereo not shown) [PCM-0102432]"
measuredresult = 0.17

[[record]]
molecule = "CC(C)c1ccc(NC(=O)CCl)cc1 [PCM-0102532]"
measuredresult = 0.33

[[record]]
molecule = "Cl.O=C(CCl)N1CCN(Cc2ccsc2)CC1 [PCM-0102739]"
measuredresult = 0

[[record]]
molecule = "C=CC(=O)Nc1cccc(F)c1C [PCM-0102413]"
measuredresult = 0

[[record]]
molecule = "C=CC(=O)NC1CCCCC1n1cccn1 (stereo not shown) [PCM-0102440]"
measuredresult = 0

[[record]]
molecule = "O=C(CCl)Nc1cc2c(cc1Cl)OCCCO2 [PCM-0102331]"
measuredresult = 0.26

[[record]]
molecule = "C=CC(=O)Nc1cccc(Br)c1 [PCM-0102667]"
measuredresult = 0.18

[[record]]
molecule = "C=CC(=O)N1CCc2c(ncn(CC)c2=O)C1 [PCM-0103074]"
measuredresult = 0

[[record]]
molecule = "C=CC(=O)N1CCCc2cc(C(=O)O)ccc21 [PCM-0102421]"
measuredresult = 0


---

studyTarget: OTUB2 (OTUB2A) (Homo sapiens, UniProt Q96DC9)
Construct: full length residues 1-234, E. coli BL21(DE3)-R3, His tag removed by TEV, construct 27312 Da
Sequence (Q96DC9 1-234): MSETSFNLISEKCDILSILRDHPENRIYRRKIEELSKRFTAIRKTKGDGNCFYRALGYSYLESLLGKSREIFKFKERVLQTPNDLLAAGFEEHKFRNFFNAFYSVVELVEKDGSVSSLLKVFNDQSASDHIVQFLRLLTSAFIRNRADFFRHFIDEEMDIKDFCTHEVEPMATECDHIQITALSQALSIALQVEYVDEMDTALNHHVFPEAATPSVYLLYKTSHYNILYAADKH
Parameters: Intact protein LC/MS covalent labelling, fragments in pools of five, 200 uM each, 4 °C
studyConditions: 24 h, 4 °C, pool of five; 200 µM; covalent
Mark Yes only when OTUB2 stays strictly below 0.06. Values equal to the cut-off are No.

[[record]]
compoundsmiles = "COC(=O)NC(=O)CCl"
classname = "No"

[[record]]
compoundsmiles = "CCOC(=O)N1CCC(NC(=O)CCl)CC1"
classname = "No"

[[record]]
compoundsmiles = "C#CCN1CCN(C(=O)CCl)CC1.Cl"
classname = "Yes"

[[record]]
compoundsmiles = "COc1cc(=O)[nH]c(NC(=O)CCl)n1"
classname = "Yes"

[[record]]
compoundsmiles = "O=C(CCl)Nc1ccc(F)c([N+](=O)[O-])c1"
classname = "No"

[[record]]
compoundsmiles = "O=C(CCl)Nc1ccc(Br)cc1Cl"
classname = "No"


---

method: in vitro
Design: species or system CCD841, HEK293
studyConditions: human, hb2 cells, read-out: HB-2 Cells Viability (%)
Let's look at some compounds and their measured viability at 48 h, 10 µM.
endpoint: viability at 48 h, 10 µM

[[record]]
compound = "CC1CCc2c(sc(NC(=O)CCl)c2C#N)C1 (centres unmarked) [PCM-0102420]"
endpoint = "viability at 48 h, 10 µM"
measuredresult = "50.9%"

[[record]]
compound = "O=C(CCl)Nc1cc(C(F)(F)F)ccc1-n1cncn1 [PCM-0102218]"
endpoint = "viability at 48 h, 10 µM"
measuredresult = "42.2%"

[[record]]
compound = "CC(C)c1cccc(NC(=O)CCl)c1 [PCM-0102429]"
endpoint = "viability at 48 h, 10 µM"
measuredresult = "17.7%"

[[record]]
compound = "CSc1ccc(NC(=O)CCl)cc1 [PCM-0102772]"
endpoint = "viability at 48 h, 10 µM"
measuredresult = "15.2%"

[[record]]
compound = "C=CC(=O)NCc1nnc(C(C)(C)C)s1 [PCM-0102727]"
endpoint = "viability at 48 h, 10 µM"
measuredresult = "105%"

[[record]]
compound = "C=CC(=O)Nc1cccc(F)c1C [PCM-0102413]"
endpoint = "viability at 48 h, 10 µM"
measuredresult = "100%"

[[record]]
compound = "COc1ccc(NC(=O)NC(=O)CCl)cc1 [PCM-0102268]"
endpoint = "viability at 48 h, 10 µM"
measuredresult = "63.7%"

[[record]]
compound = "O=C(CCl)NC1CCC2(CC1)OCCO2 [PCM-0102820]"
endpoint = "viability at 48 h, 10 µM"
measuredresult = "107%"

[[record]]
compound = "COc1ccc(Cl)cc1NC(=O)CCl [PCM-0102370]"
endpoint = "viability at 48 h, 10 µM"
measuredresult = "3.7%"

[[record]]
compound = "Cc1ccccc1CN1CCN(C(=O)CCl)CC1.Cl [PCM-0102876]"
endpoint = "viability at 48 h, 10 µM"
measuredresult = "31.1%"

[[record]]
compound = "C=CC(=O)NC1CCCc2cnn(C(C)C)c21 (centres unmarked) [PCM-0102583]"
endpoint = "viability at 48 h, 10 µM"
measuredresult = "105%"

[[record]]
compound = "O=C(CCl)Nc1cc2c(cc1Cl)OCO2 [PCM-0102209]"
endpoint = "viability at 48 h, 10 µM"
measuredresult = "58.1%"

[[record]]
compound = "COC(=O)c1ccc(Cl)c(NC(=O)CCl)c1 [PCM-0102764]"
endpoint = "viability at 48 h, 10 µM"
measuredresult = "16.7%"

[[record]]
compound = "CC(c1ccc(F)c(F)c1)N(C)C(=O)CCl (centres unmarked) [PCM-0102438]"
endpoint = "viability at 48 h, 10 µM"
measuredresult = "23.2%"

[[record]]
compound = "O=C(CCl)N1CCN(S(=O)(=O)c2cccc(F)c2)CC1 [PCM-0102327]"
endpoint = "viability at 48 h, 10 µM"
measuredresult = "5.2%"

[[record]]
compound = "O=C(CCl)NCC1Cc2ccccc2O1 (centres unmarked) [PCM-0103020]"
endpoint = "viability at 48 h, 10 µM"
measuredresult = "99.1%"

[[record]]
compound = "CN(C(=O)CCl)C1(C#N)CCCCC1 [PCM-0102916]"
endpoint = "viability at 48 h, 10 µM"
measuredresult = "38%"

